target: Neutrophil elastase (Homo sapiens, UniProt P08246); experiment: In vitro inhibition of Human Leukocyte Elastase (HLE)
Readout label: pIC50
Give bare numbers, as −log10 of the molar value.

Reference set, count: 7
Structure notation	pIC50
CO[C@H]1C(=O)N2C(C(=O)OCc3ccccc3)=C(COC(C)=O)CS(=O)(=O)[C@H]12	7.15
CO[C@H]1C(=O)N2C(C(=O)N(C)CC(=O)O)=C(COC(C)=O)CS(=O)(=O)[C@H]12	5.30
COc1ccc(COC(=O)C2=C(COC(C)=O)CS(=O)(=O)[C@@H]3[C@@H](OC)C(=O)N23)cc1	7.00
CO[C@H]1C(=O)N2C(C(=O)OCc3ccc(C(C)(C)C)cc3)=C(COC(C)=O)CS(=O)(=O)[C@H]12	6.70
CO[C@H]1C(=O)N2C(C(=O)OCc3ccc(C(=O)OC(C)(C)C)cc3)=C(COC(C)=O)CS(=O)(=O)[C@H]12	6.40
CCOC(=O)COC(=O)C1=C(COC(C)=O)CS(=O)(=O)[C@@H]2[C@@H](OC)C(=O)N12	7.00
CO[C@H]1C(=O)N2C(C(=O)NC(C)(C)C)=C(COC(C)=O)CS(=O)(=O)[C@H]12	6.10

For the next question, use this compound.
Recorded result, CO[C@H]1C(=O)N2C(C(=O)N(C)CC(=O)OC(C)(C)C)=C(COC(C)=O)CS(=O)(=O)[C@H]12 , pIC50: 6.70

###

Target: Neutrophil elastase (Homo sapiens) (UniProt P08246)
Sequence (whole entry): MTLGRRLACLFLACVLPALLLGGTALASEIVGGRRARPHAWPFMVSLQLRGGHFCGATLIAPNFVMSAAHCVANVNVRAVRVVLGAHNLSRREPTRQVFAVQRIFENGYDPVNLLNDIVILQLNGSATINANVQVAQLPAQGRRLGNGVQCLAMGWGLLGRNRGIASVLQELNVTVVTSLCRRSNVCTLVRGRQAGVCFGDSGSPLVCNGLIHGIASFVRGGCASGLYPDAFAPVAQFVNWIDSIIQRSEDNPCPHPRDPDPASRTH
Returns the class for an entry based on its K obs / 1. Class ranges: lo (below 2000 M⁻¹ s⁻¹), med (2000 M⁻¹ s⁻¹ to below 9000 M⁻¹ s⁻¹), hi (9000 M⁻¹ s⁻¹ or more)

Look over these answered cases.
Structure notation	Label class
COC(=O)CCN(C)C(=O)C1=C(COC(C)=O)CS(=O)(=O)[C@@H]2[C@@H](OC)C(=O)N12	med
CO[C@H]1C(=O)N2C(C(=O)N(C)Cc3ccc(C(=O)O)cc3)=C(COC(C)=O)CS(=O)(=O)[C@H]12	med
CO[C@H]1C(=O)N2C(C(=O)NC(C)(C)C)=C(COC(C)=O)CS(=O)(=O)[C@H]12	med
CCCC[C@H](NC(=O)OC(C)(C)C)[C@@H](O)C(=O)O[C@H]1C[C@@]2(O)[C@@H](OC(=O)c3ccccc3)[C@@H]3[C@]4(OC(C)=O)CO[C@@H]4C[C@H](O)[C@@]3(C)[C@@H](O)[C@H](OC(C)=O)C(=C1C)C2(C)C	lo

Here is the next item to consider.
### Prompt Hello team, could you let me know which band the following compound falls into: CO[C@H]1C(=O)N2C(C(=O)N(C)CCC(=O)O)=C(COC(C)=O)CS(=O)(=O)[C@H]12
### Response lo

###

target: Neutrophil elastase (Homo sapiens, UniProt P08246); assay: In vitro inhibition of Human Leukocyte Elastase (HLE)
Readout label: pIC50
Numbers only, as −log10 of the molar value.

Structure notation	Study system	pIC50
CO[C@H]1C(=O)N2C(C(=O)N(C)Cc3ccc(C(=O)O)cc3)=C(COC(C)=O)CS(=O)(=O)[C@H]12	Neutrophil elastase (Homo sapiens, UniProt P08246)	6.40
COC(=O)C1=C(COC(C)=O)CS(=O)(=O)[C@@H]2[C@@H](OC)C(=O)N12	Neutrophil elastase (Homo sapiens, UniProt P08246)	6.70

We next turn to a different compound, shown below.
Form: item CO[C@H]1C(=O)N2C(C(=O)N(C)C)=C(COC(C)=O)CS(=O)(=O)[C@H]12 ; test system Neutrophil elastase (Homo sapiens, UniProt P08246); pIC50: 5.70

###

Molecular target: Neutrophil elastase (Homo sapiens)
Sequence (whole entry): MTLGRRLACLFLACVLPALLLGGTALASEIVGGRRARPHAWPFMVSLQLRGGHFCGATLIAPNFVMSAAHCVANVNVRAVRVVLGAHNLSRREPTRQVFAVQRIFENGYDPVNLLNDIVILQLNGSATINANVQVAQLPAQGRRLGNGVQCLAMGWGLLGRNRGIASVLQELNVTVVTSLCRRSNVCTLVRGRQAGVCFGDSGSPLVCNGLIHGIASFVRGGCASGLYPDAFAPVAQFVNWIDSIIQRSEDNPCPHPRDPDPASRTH
Readout label: log10 K obs / 1 (log10 of the value in M⁻¹ s⁻¹)
Please note: log10 values; quantity K obs / 1; unit M⁻¹ s⁻¹.

Solved entries:
Structure notation	Study system	Measured
COC(=O)CN(C)C(=O)C1=C(COC(C)=O)CS(=O)(=O)[C@@H]2[C@@H](OC)C(=O)N12	Neutrophil elastase (Homo sapiens)	3.98
CO[C@H]1C(=O)N2C(C(=O)N3CCOCC3)=C(COC(C)=O)CS(=O)(=O)[C@H]12	Neutrophil elastase (Homo sapiens)	4.54
CO[C@H]1C(=O)N2C(C(=O)N(C)C)=C(COC(C)=O)CS(=O)(=O)[C@H]12	Neutrophil elastase (Homo sapiens)	3.59
CO[C@H]1C(=O)N2C(C(=O)N(C)CC(=O)O)=C(COC(C)=O)CS(=O)(=O)[C@H]12	Neutrophil elastase (Homo sapiens)	2.48

Turning now to a further record.
Recorded result, CO[C@H]1C(=O)N2C(C(=O)N3CCCC3)=C(COC(C)=O)CS(=O)(=O)[C@H]12 , log10 K obs / 1: 4.43
